system: Mus musculus; experiment: Antiobesity activity in Sabra mouse assessed as change in food consumption at 1 mg/kg, ip administered on day 8, 9, 10, 11, 14, 18, 24 and 32 measured after 5 weeks relative to control; format: functional; conditions: route intraperitoneal
READOUT_NAME: Activity (%)

[[record]]
compound_structure_string = "CCCCCCCCCCCCCCCC(=O)N[C@H](CO)C(C)C"
readout_name = "Activity"
measurement = 97.4

[[record]]
compound_structure_string = "CCCCCCCCCCCCCCCCCC(=O)N[C@H](CO)C(C)C"
readout_name = "Activity"
measurement = 100.5

[[record]]
compound_structure_string = "CCCCCCCC/C=C\\CCCCCCCC(=O)N[C@H](CO)C(C)C"
readout_name = "Activity"
measurement = 85.9

[[record]]
compound_structure_string = "CCCCCCCC/C=C/CCCCCCCC(=O)N[C@H](CO)C(C)C"
readout_name = "Activity"
measurement = 109.2

[[record]]
compound_structure_string = "CCCCCCCC/C=C\\CCCCCCCC(=O)N[C@@H](CO)C(C)C"
readout_name = "Activity"
measurement = 80.6

[[record]]
compound_structure_string = "CCCCCCCC/C=C/CCCCCCCC(=O)N[C@@H](CO)C(C)C"
readout_name = "Activity"
measurement = 111.4


Where do the numbers come from? From ChEMBL document CHEMBL2321853.
